Tested on: HCV replicon cells
procedure summary: HCV replicon FRET assay
Format: cell-based
study conditions: Hepatitis C virus
reported metric: EC50

Worked examples, 8 compounds total:
>>> reported_result("COc1ccc2c(c1)C1CC1(NC(=O)N(C)CC(N)=O)Cn1c-2c(C2CCCCC2)c2ccc(C(=O)NS(=O)(=O)N(C)C)cc21 (centres unmarked)")
"20 to 1000 nM"
>>> reported_result("COc1ccc2c(c1)[C@@H]1C[C@]1(NC(=O)OC(C)(C)C)Cn1c-2c(C2CCCCC2)c2ccc(C(=O)NS(=O)(=O)N(C)C)cc21")
"20 to 1000 nM"
>>> reported_result("COc1ccc2c(c1)C1CC1(NC(=O)N1CC(OC)C1)Cn1c-2c(C2CCCCC2)c2ccc(C(=O)NS(=O)(=O)N(C)C)cc21 (centres unmarked)")
"20 to 1000 nM"
>>> reported_result("COc1ccc2c(c1)C1CC1(NC(=O)N1CCOCC1)Cn1c-2c(C2CCCCC2)c2ccc(C(=O)O)cc21 (centres unmarked)")
"70 to 1000 nM"
>>> reported_result("COc1ccc2c(c1)[C@@H]1C[C@]1(N)Cn1c-2c(C2CCCCC2)c2ccc(C(=O)NS(=O)(=O)N(C)C)cc21")
"20 to 1000 nM"
>>> reported_result("COc1ccc2c(c1)C1CC1(NC(=O)N(C)CCN(C)C)Cn1c-2c(C2CCCCC2)c2ccc(C(=O)NS(=O)(=O)N(C)C)cc21 (centres unmarked)")
"20 to 1000 nM"
>>> reported_result("O=C(O)c1ccc2c(C3CCCCC3)c3n(c2c1)CC1(NC(=O)N2CCOCC2)CC1c1ccccc1-3 (centres unmarked)")
"70 to 1000 nM"
>>> reported_result("COCCNC(=O)CN(C)C(=O)NC12CC1c1cc(OC)ccc1-c1c(C3CCCCC3)c3ccc(C(=O)NS(=O)(=O)N(C)C)cc3n1C2 (centres unmarked)")
"20 to 1000 nM"

State recorded EC50 for all listed compounds.
1. COc1ccc2c(c1)C1CC1(NC(=O)N1C[C@@H](C)N(C)[C@@H](C)C1)Cn1c-2c(C2CCCCC2)c2ccc(C(=O)NS(=O)(=O)N(C)C)cc21 (some centres unmarked)
2. COc1ccc2c(c1)C1CC1(NC(=O)N(C)CC(=O)N1CCN(C)CC1)Cn1c-2c(C2CCCCC2)c2ccc(C(=O)NS(=O)(=O)N(C)C)cc21 (centres unmarked)
3. COc1ccc2c(c1)C1CC1(NC(=O)N(C)CC1CCOCC1)Cn1c-2c(C2CCCCC2)c2ccc(C(=O)NS(=O)(=O)N(C)C)cc21 (centres unmarked)
4. COc1ccc2c(c1)C1CC1(NC(=O)N1C[C@@H](C)O[C@@H](C)C1)Cn1c-2c(C2CCCCC2)c2ccc(C(=O)NS(=O)(=O)N(C)C)cc21 (some centres unmarked)
5. COc1ccc2c(c1)C1CC1(NC(=O)OC(C)(C)C)Cn1c-2c(C2CCCCC2)c2ccc(C(=O)NS(=O)(=O)N(C)C)cc21 (centres unmarked)

Marked response:
["20 to 1000 nM", "20 to 1000 nM", "20 to 1000 nM", "70 to 1000 nM", "20 to 1000 nM"]

// sample COc1ccc2c(c1)C1CC1(N)Cn1c-2c(C2CCCCC2)c2ccc(C(=O)NS(=O)(=O)N(C)C)cc21 (centres unmarked) , its EC50 was 20 to 1000 nM
